- Test system: Hs-578T
- Assay overview: NCI tumour cell line growth inhibition, 48 h
Calls of active or inactive are those of the source. Rule as the data show it: active = GI50 up to about 1.1 µM and inactive = higher.
Bench note: report the call from label 1 = active, label 0 = inactive

Below, 5 molecules whose answers are already recorded.
[[record]]
molecule = "Cc1ccc(S(=O)(=O)n2cc(/C=C/C#N)c(-c3cn(S(=O)(=O)c4ccc(C)cc4)cc3-c3cn(S(=O)(=O)c4ccc(C)cc4)cc3/C=C/C#N)c2)cc1"
class_label = "label 0"

[[record]]
molecule = "C=C(CO)[C@H]1CC/C(C)=C/CC/C(C)=C/C/C=C(\\C)[C@H](O)C1"
class_label = "label 0"

[[record]]
molecule = "COc1ccc(C(OCC2OC(n3cc(C)c(=O)[nH]c3=O)CC2n2cc(Cn3cc(Cl)c(=O)[nH]c3=O)nn2)(c2ccccc2)c2ccccc2)cc1 (stereo not given)"
class_label = "label 0"

[[record]]
molecule = "Brc1ccc(-c2[nH]c3ccccc3c2/C=N\\Nc2ccc(-c3nc4ccccc4[nH]3)cc2)cc1"
class_label = "label 1"

[[record]]
molecule = "CO/C(N)=C(C#N)/N=C/c1ccco1"
class_label = "label 0"


We next turn to a different molecule, shown below.
Tell me the recorded outcome of this test for `Nc1ccccc1/C=C\c1ccccc1` .
label 0

Recorded values, source ChEMBL document CHEMBL1201862.
